Recorded values, source paper PMC9055814.

assayed target: SlGAMYB2-GST (Solanum lycopersicum, UniProt A0A3Q7H2U6 1-504)
measurement description: EMSA
measured attribute: binding result

Example entries begin here.
SlGA3ox2 probe P1 (dsDNA) DNA 1: GCACTTAAGATCATAATTAATGATTTCAGTTACCGCAATAAAATG DNA 2: CATTTTATTGCGGTAACTGAAATCATTAATTATGATCTTAAGTGC: no binding
SlGA3ox1 probe P5 (dsDNA) DNA 1: TTAACAAAGACAAATTAGTTGATTGGTTAAAGACAATCAATATGT DNA 2: ACATATTGATTGTCTTTAACCAATCAACTAATTTGTCTTTGTTAA: no binding
SlGA3ox2 probe P3 (dsDNA) DNA 1: CCCATACAACTTTGCGATGTTAATGGTTATAACTATAAAGGGAGA DNA 2: TCTCCCTTTATAGTTATAACCATTAACATCGCAAAGTTGTATGGG: binds
SlGA3ox2 probe P4 (dsDNA) DNA 1: CTATAATTGAATTGAATTCAGTTAACTGTCGAAATTGGAATGGTA DNA 2: TACCATTCCAATTTCGACAGTTAACTGAATTCAATTCAATTATAG: no binding

Next, consider the following binder.
Form field binding result, entry SlGA3ox2 probe P2 (dsDNA) DNA 1: CAATTATTTGTCAATATTTGGTTAAATACTTGTTTAATAGTATAC DNA 2: GTATACTATTAAACAAGTATTTAACCAAATATTGACAAATAATTG : binds
